Catalogue of B1R Antagonism, rat [10 μM] % Inhibition readings, one per entry.
Target: B1R receptor of the rat (Rattus norvegicus, UniProt P97583)
Construct: host or cells: CHO K1 cells (Chinese hamster ovary), stably transfected
Sequence (P97583 whole entry): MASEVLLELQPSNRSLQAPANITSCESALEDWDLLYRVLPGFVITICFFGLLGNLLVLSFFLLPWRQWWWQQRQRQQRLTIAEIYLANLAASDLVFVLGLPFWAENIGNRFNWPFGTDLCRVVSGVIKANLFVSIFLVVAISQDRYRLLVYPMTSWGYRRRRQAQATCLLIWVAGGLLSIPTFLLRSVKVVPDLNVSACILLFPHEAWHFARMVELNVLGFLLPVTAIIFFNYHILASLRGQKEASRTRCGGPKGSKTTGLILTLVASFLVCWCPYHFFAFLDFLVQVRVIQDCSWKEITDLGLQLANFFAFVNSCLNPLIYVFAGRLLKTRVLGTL
Test: Functional study on the bradykinin receptor 1 (B1R), FLIPR Ca2+ assay, rB1R cells
Type: cell-based
Conditions: test substance 10 μM; rB1R CHO K1 cells; agonist Des-Arg9-bradykinin 100 nM; % inhibition compared with the maximum achievable inhibition
Source text: The agonistic or antagonistic action of substances can be quantified on the bradykinin receptor 1 (B1R) of the species human and rat with ectopically expressing cell lines (CHO K1 cells) and with the aid of a Ca^2+-sensitive dye (Fluo-4) using a fluorescent imaging plate reader (FLIPR). […] The agonistic or antagonistic action of substances can be determined on the bradykinin receptor 1 (B1R) of the species human and rat using the following assay. […]
Respond with the bare value in %.

- molecule: "COc1cc(C)c(S(=O)(=O)N2CCCCC2COCC(=O)N2CCN(C3CCN(C)CC3)CC2)c(C)c1 (centres unmarked)"
  quantity.kind: "B1R Antagonism, rat [10 μM] % Inhibition"
  readout.number: 106.6
- molecule: "COc1cc(C)c(S(=O)(=O)N2CCCCC2COCC(=O)N2CCC(N3CCN4CCCCC4C3)CC2)c(C)c1.Cl.Cl (centres unmarked)"
  quantity.kind: "B1R Antagonism, rat [10 μM] % Inhibition"
  readout.number: 100.08
- molecule: "COc1cc(C)c(S(=O)(=O)N2CCCCC2COCC(=O)Nc2cccc3cnccc23)c(C)c1 (centres unmarked)"
  quantity.kind: "B1R Antagonism, rat [10 μM] % Inhibition"
  readout.number: 99.75

Query: Indicate the recorded B1R Antagonism, rat [10 μM] % Inhibition value for this molecule: CN(C(=O)COCC1CCCCN1S(=O)(=O)c1cccc2ccccc12)C(CN1CCOCC1)c1ccccc1 (centres unmarked)
Response: 48.84

Query: Indicate the recorded B1R Antagonism, rat [10 μM] % Inhibition value for this molecule: CN1CCN(C2CCN(C(=O)COCC3CCCCN3S(=O)(=O)c3cccc4ccccc34)CC2)CC1 (centres unmarked)
Response: 62.33

Query: Indicate the recorded B1R Antagonism, rat [10 μM] % Inhibition value for this molecule: Cc1cc(C)nc(CC2CCCN2C(=O)COCC2CCCCN2S(=O)(=O)c2cccc3ccccc23)c1 (centres unmarked)
Response: 97.3

Query: Indicate the recorded B1R Antagonism, rat [10 μM] % Inhibition value for this molecule: COc1cc(C)c(S(=O)(=O)N2CCC[C@H]2COCC(=O)N2CCN(C3CCN(C)CC3)CC2)c(C)c1
Response: 98.6

Query: Indicate the recorded B1R Antagonism, rat [10 μM] % Inhibition value for this molecule: COc1cc(C)c(S(=O)(=O)N2CCCCC2COCC(=O)N2CCC(N3CCN(C)CC3)CC2)c(C)c1 (centres unmarked)
Response: 100.66

Query: Indicate the recorded B1R Antagonism, rat [10 μM] % Inhibition value for this molecule: COc1ccc(S(=O)(=O)N2CCCCC2COCC(=O)Nc2ccc(NC(=O)CN3CCCCC3)c(C)c2)cc1 (centres unmarked)
Response: 87.56

Query: Indicate the recorded B1R Antagonism, rat [10 μM] % Inhibition value for this molecule: O=C(COCC1Cc2ccccc2CN1S(=O)(=O)c1ccc(Cl)cc1Cl)N1CCC(N2CCCC2)CC1 (centres unmarked)
Response: 96.94
